Consider the following molecules and their measured TGI readings.
# Test system: MDA-N
# testSummary: NCI tumour cell line growth inhibition, 48 h

COc1ccc2c(c1)C(N)=C(c1ccccc1)C2=O; > 100 µM

Please examine the following record next.
Prompt: I am curious: what TGI value has been reported for CC(=O)OCC1OC(n2c3c(c(-c4cccc5ccccc45)c(C#N)c2=S)CCCC3)C(OC(C)=O)C(OC(C)=O)C1OC(C)=O (centres undefined) ?
Response: > 100 µM

* * *

# Test system: UACC-62 melanoma
# testSummary: NCI tumour cell line growth inhibition, 48 h; in the data active means GI50 below about 0.43 µM; inactive means the rest
Classes to choose from: T = active, F = inactive

The examples below pair each entry with its known result.
CCn1c(C(=O)N(C2CC2)C2CC2)cc2c3c(ncn3C)c(Nc3cc(C)n(C)n3)nc21; F
O=C(c1ccc2ccccc2c1)c1c(C(F)(F)F)n([O-])c2cc(F)c(F)cc2[n+]1=O; F
C/C(=N\O)c1cccc(Nc2cc(-n3ccnn3)c3ccccc3n2)c1; F
Oc1ccc(C(c2ccc(O)cc2)c2ccc(Cl)cn2)cc1; F
COc1cc(CCN)c2c(c1OC)SSSSS2; F

Prompt: // outcome(item) with item = CC1(C)CC[C@H](Nc2ncc(C(F)(F)F)c(-c3c[nH]c4c(P(C)(C)=O)c(C#N)ccc34)n2)CN1
Response: T

Prompt: What outcome does the record of this test show for Cc1c(S(C)(=O)=O)c(-c2cc(F)cc(N3CCN(c4ccc(NS(=O)(=O)c5ccc(N[C@H](CCN6CCC(C(=O)OCCCP(=O)(O)O)CC6)CSc6ccccc6)c(S(=O)(=O)C(F)(F)F)c5)cc4)CC3)c2)c(-c2ccc(Cl)cc2)n1C(C)C ?
Response: F

Prompt: What did this assay record as the result for CCc1n(Cc2ccc3ccccc3n2)cc[n+]1Cc1ccc2ccccc2n1 ?
Response: T

* * *

Quick reference for TGI among some compounds
# Tested on: K-562 leukemia
# testSummary: NCI tumour cell line growth inhibition, 48 h

Here is how some compounds turned out for TGI.
O=C1C=CC(=O)C(CNc2ccc(C(=O)OC34CC5CC(CC(C5)C3)C4)cc2)=C1; > 49.3 µM
CCOC(=O)/C(O)=C/c1cc(OC)cc(=O)o1; > 100 µM
Cc1ccc(C2=NOC(=O)[C@@H]3CCCC[C@@H]23)cc1; > 100 µM
Cc1ccc(C(=O)O)c(CC2Cc3c(C)cccc3C2=O)c1 (configuration not stated); > 100 µM
CC(C)C1(O)C(c2ccccc2)=C(c2ccccc2)C(c2ccccc2)=C1c1ccccc1; > 100 µM
COc1nc2c(c(=O)n1C)N[C@H]1[C@H](OC(C)=O)[C@@H](OC(C)=O)CO[C@H]1N2; > 100 µM

Prompt: Missing value: TGI, K-562 leukemia, entry O=C1C(c2c[nH]c3ccccc23)=C(c2c[nH]c3ccccc23)C(=O)N1O . Fill in?
Response: > 25 µM

Prompt: For the record C(=C\c1cccc(/C=C/c2ccccn2)n1)/c1ccccn1 , what value of TGI is listed for K-562 leukemia?
Response: > 100 µM

* * *

Overview of recorded TGI for various compounds
# Test system: RPMI-8226 leukemia
# testSummary: NCI tumour cell line growth inhibition, 48 h

Would you please look over these solved cases?
O=C(c1ccccc1)C1CCCCN1C(=O)c1ccccc1 (stereo not given); > 100 µM
CN(C)c1ccc([O-])cc1.CN(C)c1ccc([O-])cc1.CN(C)c1ccc([O-])cc1.CN(C)c1ccc([O-])cc1.[Ti+4]; > 100 µM
Cc1ccc(C2=NOC(=O)[C@@H]3CCCC[C@@H]23)cc1; > 100 µM
CC[N+](C)(CC)CCC(O)(c1ccccc1)c1ccccc1; > 100 µM
COc1ccc2c(c1)C(=O)c1c-2n(CCCN=[N+]=[N-])c(=O)c2cc(N(C)C)ccc12; > 100 µM

Prompt: I am curious: what TGI value has been reported for Nc1nc2c(c(=O)[nH]1)NC(CO)CN2 (stereo not given) ?
Response: > 100 µM

Prompt: TGI lookup needed for COc1ccc2c(c1)/C(=C\c1cccnc1)C(=O)N2 , thanks.
Response: 76.7 µM

Prompt: What value of TGI has been reported for the following compound? CC(C)=CCC/C(C)=C/CC/C(C)=C/Cc1c(O)c2ccccc2oc1=O
Response: > 100 µM

Prompt: Given the compound CN1CCN(c2ccc(NC(=O)c3nc4ccc5[nH]ncc5c4c4c3CCCC4)cc2C(F)(F)F)CC1 , what is its reported TGI?
Response: 2.3 µM

Prompt: State the recorded TGI for this entry: N#Cc1nc(CCCCCN2C(=O)c3ccccc3C2=O)oc1N
Response: > 100 µM

Origin of values: PubChem BioAssay (NCI)
